B1: Osa-1-4 twister ribozyme (parent)
chain: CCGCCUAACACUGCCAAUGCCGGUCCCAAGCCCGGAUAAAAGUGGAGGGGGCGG

Variants of: B1
Experiment: self-cleavage, relative activity (ratio to wild type); higher = more cleavage; co-transcriptional
Rule: self-cleavage under 0.07 gives -1, otherwise 1.

record_sequence | label_class
CCGCCUAACACUGCCAGUGCCGGUCCCAAGCCCGGAAAAAAGUGGAGGGGGCGG [A17G U37A] | 1
CCGCCUAACACUGCCAAUGCCGGUCCCAAGCCCGGAUAAGAGUCGAGGGGGCGG [A40G G44C] | 1

**Q:** Is it the case that CCGCCUAACACUGCCAACGCCGGUCCCAAGCCCGGAUAAAAGUGGAGGGAGCGG [G50A U18C] has self-cleavage reaching or exceeding 0.07?
**A:** 1

**Q:** Lookup CCGCCUAACACCGCCAAUGCCGGUCCCAAGCCCGGAUACAAGUGGAGGGGGCGG [A39C U12C]
**A:** 1

**Q:** Lookup CCGCCUAACACUGCCAAUGCCGGUCCCAAGCCCGGAUAAAAUUGGAGUGGGCGG [G42U G48U]
**A:** -1

**Q:** Lookup CCGCCUAACACUGCCAAUGCCGGUCCCAAACCCGGAUAAAAGUCGAGGGGGCGG [G30A G44C]
**A:** -1

**Q:** Lookup CCGCCUAACACUGCCAAUGCCGGUCCCAAUCCCGGAUAAAAGUGGAGGGGGCGA [G30U G54A]
**A:** -1

**Q:** Lookup CCGCCUAAGACUGCCAAUGCCGGUCCCAAGCCCGGAUAAAAGUGGAGUGGGCGG [C9G G48U]
**A:** -1

**Q:** Lookup CCGCCUAACACUGCCAAUGCCGGUCCCAAGCCAGGAUAAAAUUGGAGGGGGCGG [C33A G42U]
**A:** -1

**Q:** Lookup CCGCCUAACACUGCCAAUGCCGGUCCCAAGGCCCGAUAAAAGUGGAGGGGGCGG [C31G G34C]
**A:** 1

**Q:** Lookup CCGCCUAACACUGCCAAUGCCUGUCCCAAGCCCGGAUAAAAGUGGAGGUGGCGG [G22U G49U]
**A:** -1

**Q:** Lookup CCGCCUAACACUGCCAAUGCCGGUCCCAAGCCCGGAUAAAAGCGGAGGGGACGG [G51A U43C]
**A:** 1

**Q:** Lookup CCGCCUAACACUGCCAAUGCCGGUCCCCAGCCCGGAUAAAAGUGGAGGGGGAGG [A28C C52A]
**A:** 1

**Q:** Lookup CCGCCUAACACUGCCCAUGCCGGUCCCAAGCCCGGAUAAAAGUGGAGGGUGCGG [A16C G50U]
**A:** 1

**Q:** Lookup CCGCCUAACACUGCCACUGCCGGUCCCCAGCCCGGAUAAAAGUGGAGGGGGCGG [A17C A28C]
**A:** 1

**Q:** Lookup CCGCCUAACACUGCCAAUGACGGUCCCAAGCCCGGAUAAAAGUAGAGGGGGCGG [C20A G44A]
**A:** 1
